Target: T1, human IL-4Rα (hIL-4Rα) monomeric protein (human, UniProt P24394 26-232, limits assumed)
T1 construct: also called hIL-4Rα antigen; barcoded hIL-4Rα
Test: Biacore (SPR)
Measure: pKd
# pKd = -log10(concentration in molar units)

Some binders with recorded pKd:
Binder: Table 1 Line # 46 antibody (SP_Plasma_cell) (antibody, human IgG4, V domains shown, Cloned with human IgG4/human Igk constants for Kd; barcode counts are of the source cell's own IgG) VH: EVQLEASGGDLVQPGRSLRLSCAASGFIFDDFGMHWVRQAPGKGLEWVSGISWNGGHIGYADSVKGRFTISRDNAKNSLYLQMNSLRAEDTALYYCAKEHSSSWYGFFDFWGRGTLVTVSS VL: DIQMTQSPSSLSASVGDRVTITCRASQGLSNSVAWYQQKPGQIPRLLISAAASLQSGVPSRFSGSGSGTDFTLTISRLQPEDVATYYCQNYNSAPRTFGQGTNVEIK
pKd: 7.31
--
Binder: Table 1 Line # 12 antibody (BM_Plasma_cell) (antibody, human IgG4, V domains shown, Cloned with human IgG4/human Igk constants for Kd; barcode counts are of the source cell's own IgG) VH: QVQLVESGGGVVQPGRSLRLSCAASGFTFSSYGMHWVRQAPGKGLEWVSVISYDGSNKYYADSVKGRFTISRDNSKNTLFLQVNSLRAEDTAVYYCAKEGRTGFDYWGQGTLVTVSS VL: DIQMTQSPSSLSASVGDRVTITCRARQGISNYLAWFQQKPGKVPKLLIYAASTLQSGVPSRFSGSGSGTDFTLTISSLQPEDVATYYCQKYNSAPWTFGQGTKVEIK
pKd: 7.46

The recorded pKd for Table 1 Line # 15 antibody (BM_Plasma_cell) (antibody, human IgG4, V domains shown, Cloned with human IgG4/human Igk constants for Kd; barcode counts are of the source cell's own IgG) VH: EVQLVESGGALVQPGRSLRLSCAASGFAFDDYAMHWVRQAPGKGLEWVSGISWNGASLGYADSLKGRFTISRDNAKNSLYLQMNSLRSEDTALFYCARDYSSAWYGYFDYWGQGTLVTVSS VL: DIQMTQSPSSLSASVGDRVTITCRASQDISNYLAWYQQKPGKVPKLLIYAASTLQSGVPSRFSGSGSGTDFTLTISSLQPQDVATYYCQNYNSVPRTFGQGTKVEIK is 7.70

The recorded pKd for Table 1 Line # 16 antibody (BM_Plasma_cell) (antibody, human IgG4, V domains shown, Cloned with human IgG4/human Igk constants for Kd; barcode counts are of the source cell's own IgG) VH: EVQLVESGGGLVQPGRSLRLSCAASGFTFDDYGMHWVRQAPGKGLEWVSGISWNSGHIGYADSVKGRFTISRDNAKNSLNLQMNSLRAEDTALYYCAKDISSSWYGYFDLWGRGTLVTVSS VL: DIQMTQSPSSLSASVGDRVTITCRASQGISNFLAWFQQKPGKVPKLLIYAASTLQSGVPSRFSGSGSGTDFTLTISSLQPEDVATYYCQEYNSAPRTFGQGTKVEIK is 8.09
